Target: TDG (thymine DNA glycosylase) (human, UniProt Q13569 1-410)
Sequence (Q13569 whole entry): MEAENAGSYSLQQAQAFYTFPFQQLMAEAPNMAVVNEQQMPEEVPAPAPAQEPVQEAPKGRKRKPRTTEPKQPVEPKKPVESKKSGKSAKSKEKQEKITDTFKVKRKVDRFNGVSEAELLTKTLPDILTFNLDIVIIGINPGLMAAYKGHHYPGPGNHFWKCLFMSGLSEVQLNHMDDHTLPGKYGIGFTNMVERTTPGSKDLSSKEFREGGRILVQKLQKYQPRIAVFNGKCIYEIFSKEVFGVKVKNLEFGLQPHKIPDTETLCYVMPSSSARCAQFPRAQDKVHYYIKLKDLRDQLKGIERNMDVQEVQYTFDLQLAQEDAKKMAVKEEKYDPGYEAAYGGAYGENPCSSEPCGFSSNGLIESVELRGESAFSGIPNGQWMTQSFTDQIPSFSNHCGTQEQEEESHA
Assay: EMSA; Hill 2.0; EMSA: 5 nM substrate, 100 mM NaCl, 2.5 mM MgCl2, 10 mM Tris-HCl pH 7.5, 5% glycerol, 30 min 30 C, 0.6% agarose 1x TBE 4 C; NMR: 0.1 M NaCl, 0.03 mM TCEP, 15 mM
Conditions: protein: recombinant; tags: His tag (pET28a, TALON purified); label: 5'-FAM strand 1; blunt
Endpoint Label: Kd (nM)
Quick reminder: number only, in nM, skip the unit.

Asked: Supply recorded Kd for D1-5caC (dsDNA, 5-carboxycytosine at strand 1 pos 20) DNA 1: TGAGGATGTATATATCTGACGCGCCGGTGGAGC DNA 2: GCTCCACCGGCGCGTACGATATATACATCCTCA here.
Given back: 25
